Data origin: ChEMBL document CHEMBL4354838

Experiment: in vivo
Settings: ICR, mouse, po, 5 mg/kg
Readout label: Cmax (ng/mL)
Kindly answer with a numeric value in ng/mL, unit omitted.

Identify measured Cmax associated with C[C@H](NC(=O)c1nc(-c2ncc(-c3ccccc3)s2)sc1C1CC1)c1ccc(C(=O)NO)cc1
138

----------
Experiment: in vivo
Conditions: ICR, mouse, po, 5 mg/kg
Readout label: AUC(0-t) (ng·h/mL)
Write it as a number; the unit ng·h/mL goes unstated.

Identify AUC(0-t) associated with the molecule C[C@H](NC(=O)c1nc(-c2ncc(-c3ccccc3)s2)sc1C1CC1)c1ccc(C(=O)NO)cc1
924

----------
Test system: HT-29
Experiment: cells
Format: functional, cell-based
Details: Homo sapiens, HT-29, 72 h
Description: Antiproliferative activity against human HT-29 cells assessed as reduction in cell growth after 72 hrs
Readout label: IC50 (nM)
Respond with the bare value in nM.

Quote IC50 with test system HT-29 for C[C@H](NC(=O)c1nc(-c2ncc(-c3ccccc3)s2)sc1C1CC1)c1ccc(C(=O)NO)cc1
166

----------
Assay: in vivo
Settings: ICR, mouse, po, 5 mg/kg
Readout label: bioavailability

Specify measured bioavailability for C[C@H](NC(=O)c1nc(-c2ncc(-c3ccccc3)s2)sc1C1CC1)c1ccc(C(=O)NO)cc1 .
34 to 34.4%

----------
Biological target: Histone deacetylase 2 (Homo sapiens, UniProt Q92769)
Sequence (Q92769 whole entry): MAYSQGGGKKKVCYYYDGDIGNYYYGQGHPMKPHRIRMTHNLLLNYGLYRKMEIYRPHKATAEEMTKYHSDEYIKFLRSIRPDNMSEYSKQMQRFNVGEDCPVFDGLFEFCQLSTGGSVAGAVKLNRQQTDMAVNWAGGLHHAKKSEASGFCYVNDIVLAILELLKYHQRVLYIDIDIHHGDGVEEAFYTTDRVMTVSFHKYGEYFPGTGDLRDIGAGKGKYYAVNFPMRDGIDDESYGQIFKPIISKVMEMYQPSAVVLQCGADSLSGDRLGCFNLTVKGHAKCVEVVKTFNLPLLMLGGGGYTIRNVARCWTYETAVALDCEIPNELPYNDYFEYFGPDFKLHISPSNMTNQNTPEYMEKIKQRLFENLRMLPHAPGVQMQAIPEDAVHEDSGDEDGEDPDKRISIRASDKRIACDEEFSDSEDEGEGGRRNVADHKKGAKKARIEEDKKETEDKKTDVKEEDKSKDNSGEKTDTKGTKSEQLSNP
Test: biochemical
Description: Inhibition of recombinant human His6/GST-tagged HDAC2 expressed in baculovirus infected High5 insect cells using Ac-Lys-Tyr-Lys(epsilon-acetyl)-AMC as susbtrate after 24 hrs by fluorescence based assay
Readout label: pIC50
Field pIC50 (float): negative decimal logarithm of the concentration in molar.

Lab note: record pIC50 of C[C@H](NC(=O)c1nc(-c2ncc(-c3ccccc3)s2)sc1C1CC1)c1ccc(C(=O)NO)cc1 tested on Histone deacetylase 2 (Homo sapiens, UniProt Q92769).
7.88

----------
Target: Histone deacetylase 9 (Homo sapiens, UniProt Q9UKV0)
Sequence (Q9UKV0 whole entry): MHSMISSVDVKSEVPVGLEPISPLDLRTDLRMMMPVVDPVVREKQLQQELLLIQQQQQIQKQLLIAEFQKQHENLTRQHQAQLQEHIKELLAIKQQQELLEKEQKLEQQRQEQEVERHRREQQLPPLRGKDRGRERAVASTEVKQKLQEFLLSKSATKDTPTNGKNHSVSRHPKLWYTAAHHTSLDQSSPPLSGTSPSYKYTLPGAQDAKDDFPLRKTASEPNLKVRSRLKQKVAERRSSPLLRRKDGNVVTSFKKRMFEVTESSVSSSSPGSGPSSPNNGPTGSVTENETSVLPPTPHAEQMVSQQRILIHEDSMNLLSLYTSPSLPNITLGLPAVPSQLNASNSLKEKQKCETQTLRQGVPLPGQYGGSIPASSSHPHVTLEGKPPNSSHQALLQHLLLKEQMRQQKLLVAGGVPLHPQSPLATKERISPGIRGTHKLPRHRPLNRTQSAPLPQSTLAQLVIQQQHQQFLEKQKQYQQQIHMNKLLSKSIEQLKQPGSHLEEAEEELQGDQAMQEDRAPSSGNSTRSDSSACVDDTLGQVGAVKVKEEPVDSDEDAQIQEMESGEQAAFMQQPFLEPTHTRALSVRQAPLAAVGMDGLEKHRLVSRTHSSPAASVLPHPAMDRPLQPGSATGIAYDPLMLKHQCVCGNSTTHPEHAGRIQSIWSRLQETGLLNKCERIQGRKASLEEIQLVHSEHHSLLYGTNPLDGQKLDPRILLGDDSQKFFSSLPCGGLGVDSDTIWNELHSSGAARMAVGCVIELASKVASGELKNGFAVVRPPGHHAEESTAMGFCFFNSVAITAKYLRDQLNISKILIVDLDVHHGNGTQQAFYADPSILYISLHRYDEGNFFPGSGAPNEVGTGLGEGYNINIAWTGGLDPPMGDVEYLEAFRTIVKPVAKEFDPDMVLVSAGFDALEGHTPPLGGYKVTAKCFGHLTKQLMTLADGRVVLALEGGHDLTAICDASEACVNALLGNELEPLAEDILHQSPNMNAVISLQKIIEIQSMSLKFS
Assay: biochemical
Readout label: IC50

Tell me IC50 reported for C[C@H](NC(=O)c1nc(-c2ncc(-c3ccccc3)s2)sc1C1CC1)c1ccc(C(=O)NO)cc1
> 20 µM

----------
Test: in vivo
Details: ICR, mouse, po, 5 mg/kg
Readout label: Tmax at 24 h (min)
Reply numerically in min, unit not repeated.

Recall and state the measured Tmax at 24 h for C[C@H](NC(=O)c1nc(-c2ncc(-c3ccccc3)s2)sc1C1CC1)c1ccc(C(=O)NO)cc1 .
40.2

----------
Assay: in vivo
Conditions: female, ICR, mouse, other tissue
Readout label: Kp
Give the value as a plain number.

Complete the entry with Kp for C[C@H](NC(=O)c1nc(-c2ncc(-c3ccccc3)s2)sc1C1CC1)c1ccc(C(=O)NO)cc1
4.38

----------
Test: in vivo
Details: ICR, mouse, other tissue
Readout label: Kp
Reply with the value as a number alone.

Give the value of Kp reported for the following: C[C@H](NC(=O)c1nc(-c2ncc(-c3ccccc3)s2)sc1C1CC1)c1ccc(C(=O)NO)cc1
10.2

----------
Assay: in vivo
Conditions: ICR, mouse, iv, 2 mg/kg
Readout label: AUC(0-t) (ng·h/mL)
Please give a number only; it is taken to be in ng·h/mL.

Please look at this compound and report its AUC(0-t): C[C@H](NC(=O)c1nc(-c2ncc(-c3ccccc3)s2)sc1C1CC1)c1ccc(C(=O)NO)cc1
1080

----------
Assay: in vivo
Details: ICR, mouse, po, 5 mg/kg
Description: Mean residence time in ICR mouse at 5 mg/kg, po after 1 hr to 24 hrs by LC-MS analysis
Readout label: MRT (h)
Write down the numeric answer in h and omit the unit.

Identify measured MRT associated with C[C@H](NC(=O)c1nc(-c2ncc(-c3ccccc3)s2)sc1C1CC1)c1ccc(C(=O)NO)cc1
5.22

----------
Test: in vivo
Settings: ICR, mouse, iv, 2 mg/kg
Readout label: half-life (h)
Numeric only. Scale: h

Give reported half-life value for C[C@H](NC(=O)c1nc(-c2ncc(-c3ccccc3)s2)sc1C1CC1)c1ccc(C(=O)NO)cc1
8.67

----------
Molecular target: UniProt Q969S8
Sequence (Q969S8 whole entry): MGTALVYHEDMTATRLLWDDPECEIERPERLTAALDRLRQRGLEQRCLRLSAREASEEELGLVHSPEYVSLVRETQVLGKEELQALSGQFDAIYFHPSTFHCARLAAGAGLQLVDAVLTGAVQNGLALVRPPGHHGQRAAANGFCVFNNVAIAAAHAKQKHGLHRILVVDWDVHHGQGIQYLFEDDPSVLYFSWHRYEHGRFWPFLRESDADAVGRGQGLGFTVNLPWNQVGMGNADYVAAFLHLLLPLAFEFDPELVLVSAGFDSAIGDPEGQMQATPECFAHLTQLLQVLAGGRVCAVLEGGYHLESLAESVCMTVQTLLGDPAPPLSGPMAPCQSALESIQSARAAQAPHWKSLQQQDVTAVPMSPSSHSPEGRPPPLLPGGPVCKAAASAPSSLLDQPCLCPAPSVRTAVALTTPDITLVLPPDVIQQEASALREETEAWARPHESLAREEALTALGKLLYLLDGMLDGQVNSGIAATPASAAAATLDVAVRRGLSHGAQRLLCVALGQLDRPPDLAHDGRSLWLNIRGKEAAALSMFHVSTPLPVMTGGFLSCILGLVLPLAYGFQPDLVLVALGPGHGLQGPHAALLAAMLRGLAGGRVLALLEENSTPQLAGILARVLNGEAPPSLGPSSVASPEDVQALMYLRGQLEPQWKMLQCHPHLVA
Assay: biochemical
Description: Inhibition of recombinant human His6/GST-tagged HDAC10 expressed in baculovirus infected High5 insect cells using Ac-Lys-Tyr-Lys(epsilon-acetyl)-AMC as susbtrate after 24 hrs by fluorescence based assay
Readout label: IC50 (nM)
Give the number; nM is assumed, so skip it.

Answer with the recorded IC50 for the compound listed here: C[C@H](NC(=O)c1nc(-c2ncc(-c3ccccc3)s2)sc1C1CC1)c1ccc(C(=O)NO)cc1
1.98

----------
Target: Histone deacetylase 4 (Homo sapiens, UniProt P56524)
Sequence (P56524 whole entry): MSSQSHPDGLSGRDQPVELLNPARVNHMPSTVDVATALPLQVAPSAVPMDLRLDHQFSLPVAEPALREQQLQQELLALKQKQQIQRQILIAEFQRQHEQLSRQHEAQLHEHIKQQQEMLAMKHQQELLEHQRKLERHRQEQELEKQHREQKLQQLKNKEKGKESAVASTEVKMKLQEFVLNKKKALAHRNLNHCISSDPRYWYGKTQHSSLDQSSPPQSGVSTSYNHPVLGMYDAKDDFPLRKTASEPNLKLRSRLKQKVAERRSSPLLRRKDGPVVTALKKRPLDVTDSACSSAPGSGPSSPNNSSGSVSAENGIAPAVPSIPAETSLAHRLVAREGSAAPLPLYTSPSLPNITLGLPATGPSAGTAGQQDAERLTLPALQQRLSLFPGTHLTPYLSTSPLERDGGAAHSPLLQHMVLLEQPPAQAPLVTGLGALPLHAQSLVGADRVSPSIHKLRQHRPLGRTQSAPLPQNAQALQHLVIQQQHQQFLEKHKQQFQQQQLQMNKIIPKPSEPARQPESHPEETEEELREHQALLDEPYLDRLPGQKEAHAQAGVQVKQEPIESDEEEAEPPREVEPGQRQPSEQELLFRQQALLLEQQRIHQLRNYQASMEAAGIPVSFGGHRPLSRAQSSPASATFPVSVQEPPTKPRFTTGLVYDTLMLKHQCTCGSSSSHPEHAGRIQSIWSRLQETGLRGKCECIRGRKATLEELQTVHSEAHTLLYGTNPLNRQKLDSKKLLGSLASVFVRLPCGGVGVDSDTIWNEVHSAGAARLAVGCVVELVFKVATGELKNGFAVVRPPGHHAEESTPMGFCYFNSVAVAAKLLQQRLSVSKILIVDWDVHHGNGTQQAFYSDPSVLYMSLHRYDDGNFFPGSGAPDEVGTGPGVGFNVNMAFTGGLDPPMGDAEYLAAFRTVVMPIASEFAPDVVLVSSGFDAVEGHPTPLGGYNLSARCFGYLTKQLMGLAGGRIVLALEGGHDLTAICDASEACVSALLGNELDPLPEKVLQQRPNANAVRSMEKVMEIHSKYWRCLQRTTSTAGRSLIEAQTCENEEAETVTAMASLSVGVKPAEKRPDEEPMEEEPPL
Assay: biochemical
Description: Inhibition of recombinant human His6/GST-tagged HDAC4 expressed in baculovirus infected High5 insect cells using Ac-Leu-Gly-Lys(Tfa)-AMC as substrate after 24 hrs by fluorescence based assay
pIC50: −log10 of the molar value.
Readout label: pIC50

Please supply the value of reported pIC50 for the item C[C@H](NC(=O)c1nc(-c2ncc(-c3ccccc3)s2)sc1C1CC1)c1ccc(C(=O)NO)cc1
< 4.70

----------
Experiment: in vivo
Conditions: male, ICR, mouse, other tissue
Readout label: Kp

Give reported Kp value for C[C@H](NC(=O)c1nc(-c2ncc(-c3ccccc3)s2)sc1C1CC1)c1ccc(C(=O)NO)cc1
2.46

----------
Test: in vivo
Conditions: ICR, mouse, other tissue
Readout label: Kp
When you answer, write just the number.

Given the molecule C[C@H](NC(=O)c1nc(-c2ncc(-c3ccccc3)s2)sc1C1CC1)c1ccc(C(=O)NO)cc1 , write its reported Kp.
176

----------
Test: in vivo
Conditions: ICR, mouse, iv, 2 mg/kg
Readout label: MRT
Remember to follow the number with its unit.

Retrieve MRT measured for C[C@H](NC(=O)c1nc(-c2ncc(-c3ccccc3)s2)sc1C1CC1)c1ccc(C(=O)NO)cc1 and print it.
10.4 h

----------
Assay: in vivo
Settings: ICR, mouse, other tissue
Readout label: Kp
Answer as a number with no unit attached.

Provide Kp value for the following molecule: C[C@H](NC(=O)c1nc(-c2ncc(-c3ccccc3)s2)sc1C1CC1)c1ccc(C(=O)NO)cc1
8.66

----------
Assay: in vivo
Conditions: ICR, mouse, iv, 2 mg/kg
Readout label: AUC(0-inf) (ng·h/mL)
Report only the number, with the unit ng·h/mL understood.

Supply measured AUC(0-inf) of C[C@H](NC(=O)c1nc(-c2ncc(-c3ccccc3)s2)sc1C1CC1)c1ccc(C(=O)NO)cc1 in your reply.
1250

----------
Target: Histone deacetylase 5 (Homo sapiens)
Sequence (Q9UQL6 whole entry): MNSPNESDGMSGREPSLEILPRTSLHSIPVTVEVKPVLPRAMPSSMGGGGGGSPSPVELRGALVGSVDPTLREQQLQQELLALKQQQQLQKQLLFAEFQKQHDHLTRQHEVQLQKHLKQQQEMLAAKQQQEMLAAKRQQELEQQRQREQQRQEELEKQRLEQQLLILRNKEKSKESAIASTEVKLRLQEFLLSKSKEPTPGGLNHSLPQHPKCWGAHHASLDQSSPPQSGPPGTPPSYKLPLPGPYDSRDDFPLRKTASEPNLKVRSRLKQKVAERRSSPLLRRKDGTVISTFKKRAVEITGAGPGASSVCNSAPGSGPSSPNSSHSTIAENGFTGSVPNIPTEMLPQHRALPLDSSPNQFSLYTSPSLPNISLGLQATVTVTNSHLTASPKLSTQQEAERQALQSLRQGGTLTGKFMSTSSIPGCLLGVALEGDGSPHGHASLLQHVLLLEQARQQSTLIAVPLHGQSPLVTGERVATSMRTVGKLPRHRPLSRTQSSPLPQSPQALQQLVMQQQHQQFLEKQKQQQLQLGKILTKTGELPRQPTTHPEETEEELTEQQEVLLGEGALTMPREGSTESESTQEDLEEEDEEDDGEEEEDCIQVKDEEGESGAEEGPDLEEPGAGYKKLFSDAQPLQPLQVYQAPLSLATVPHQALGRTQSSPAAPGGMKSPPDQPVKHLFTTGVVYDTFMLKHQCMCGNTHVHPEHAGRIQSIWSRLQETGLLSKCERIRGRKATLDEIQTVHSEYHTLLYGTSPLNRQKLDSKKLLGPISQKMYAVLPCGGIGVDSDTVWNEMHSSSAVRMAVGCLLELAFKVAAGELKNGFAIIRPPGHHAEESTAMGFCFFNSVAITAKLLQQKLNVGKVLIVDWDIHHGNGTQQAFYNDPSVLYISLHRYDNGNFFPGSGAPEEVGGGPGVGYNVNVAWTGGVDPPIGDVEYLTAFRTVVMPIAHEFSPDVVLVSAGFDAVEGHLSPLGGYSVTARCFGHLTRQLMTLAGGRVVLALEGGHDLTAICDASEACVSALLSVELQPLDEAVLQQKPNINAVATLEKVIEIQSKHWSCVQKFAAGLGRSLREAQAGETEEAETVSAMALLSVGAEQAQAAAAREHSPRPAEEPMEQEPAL
Experiment: biochemical
Description: Inhibition of recombinant N-terminal GST-tagged full length human HDAC5 expressed in baculovirus infected Sf9 cells using Ac-Leu-Gly-Lys(Tfa)-AMC as substrate after 24 hrs by fluorescence based assay
Readout label: pIC50
pIC50 is a log-scale quantity: -log10 of the concentration expressed in molar.

Specify measured pIC50 for C[C@H](NC(=O)c1nc(-c2ncc(-c3ccccc3)s2)sc1C1CC1)c1ccc(C(=O)NO)cc1 .
4.78
